Parameter relative viability: see the listing below.
System: NCI-H1792
assay protocol: relative viability (nuclei count vs DMSO), 5 days (fraction); higher = more cells survive
condition summary: first compound 1 µM
endpoint name: relative viability

>>> test_result("CCN(CC)CCCCNc1ncc2cc(-c3cc(OC)cc(OC)c3)c(NC(=O)NC(C)(C)C)nc2n1 + Cc1nc(NC(=O)N2CCC[C@H]2C(N)=O)sc1-c1ccnc(C(C)(C)C(F)(F)F)c1 [Alpelisib] (partner 2 µM)")
0.563
>>> test_result("CCN(CC)CCCCNc1ncc2cc(-c3cc(OC)cc(OC)c3)c(NC(=O)NC(C)(C)C)nc2n1 + CS(=O)(=O)CCNCc1ccc(-c2ccc3ncnc(Nc4ccc(OCc5cccc(F)c5)c(Cl)c4)c3c2)o1 [Lapatinib] (partner 2 µM)")
0.433
>>> test_result("O=c1cc(N2CCOCC2)oc2c(-c3cccc4c3sc3ccccc34)cccc12 + CS(=O)(=O)CCNCc1ccc(-c2ccc3ncnc(Nc4ccc(OCc5cccc(F)c5)c(Cl)c4)c3c2)o1 [Lapatinib] (partner 2 µM)")
0.828

----------
Measured relative viability, listed per entry for reference.
Tested on: LCLC-97TM1
assay protocol: relative viability (nuclei count vs DMSO), 5 days (fraction); higher = more cells survive
condition summary: first compound 1 µM
endpoint name: relative viability

>>> test_result("O=c1cc(N2CCOCC2)oc2c(-c3cccc4c3sc3ccccc34)cccc12 + N=C(N)NC(=N)NCCc1ccccc1 [Phenformin] (partner 250 µM)")
0.449
>>> test_result("O=c1cc(N2CCOCC2)oc2c(-c3cccc4c3sc3ccccc34)cccc12 + CC(C)C[C@H](NC(=O)[C@H](Cc1ccccc1)NC(=O)c1cnccn1)B(O)O [Bortezomib] (partner 0.002 µM)")
0.406
>>> test_result("O=c1cc(N2CCOCC2)oc2c(-c3cccc4c3sc3ccccc34)cccc12 + CS(=O)(=O)N1CCN(Cc2cc3nc(-c4cccc5[nH]ncc45)nc(N4CCOCC4)c3s2)CC1 [Pictilisib] (partner 1 µM)")
0.145

----------
The reader will find reported relative viability values listed item by item below.
System: UMC-11
assay protocol: relative viability (nuclei count vs DMSO), 5 days (fraction); higher = more cells survive
condition summary: first compound 2.53 µM
endpoint name: relative viability

>>> test_result("COc1nc(C)cnc1NS(=O)(=O)c1cccnc1-c1ccc(-c2nnco2)cc1 [Zibotentan] + CS(=O)(=O)CCNCc1ccc(-c2ccc3ncnc(Nc4ccc(OCc5cccc(F)c5)c(Cl)c4)c3c2)o1 [Lapatinib] (partner 2 µM)")
1.06
>>> test_result("O=c1cc(-c2cccc3c2Sc2ccccc2S3)oc(N2CCOCC2)c1 + Cc1nc(NC(=O)N2CCC[C@H]2C(N)=O)sc1-c1ccnc(C(C)(C)C(F)(F)F)c1 [Alpelisib] (partner 2 µM)")
0.98
>>> test_result("COc1nc(C)cnc1NS(=O)(=O)c1cccnc1-c1ccc(-c2nnco2)cc1 [Zibotentan] + Cc1cc(Nc2cc(N3CCN(C)CC3)nc(Sc3ccc(NC(=O)C4CC4)cc3)n2)n[nH]1 [Tozasertib] (partner 0.1 µM)")
0.203

----------
Catalogue of molecules with associated relative viability
System: NCI-H2126
assay protocol: relative viability (nuclei count vs DMSO), 5 days (fraction); higher = more cells survive
condition summary: first compound 0.03162 µM
endpoint name: relative viability

>>> test_result("CCN(CC)CCCCNc1ncc2cc(-c3cc(OC)cc(OC)c3)c(NC(=O)NC(C)(C)C)nc2n1 + Nc1nc2[nH]cc(CCc3ccc(C(=O)N[C@@H](CCC(=O)O)C(=O)O)cc3)c2c(=O)[nH]1 [Pemetrexed] (partner 0.2 µM)")
0.764
>>> test_result("CCN(CC)CCCCNc1ncc2cc(-c3cc(OC)cc(OC)c3)c(NC(=O)NC(C)(C)C)nc2n1 + C[C@@H](Oc1cc(-c2cnn(C3CCNCC3)c2)cnc1N)c1c(Cl)ccc(F)c1Cl [Crizotinib] (partner 1 µM)")
0.992
>>> test_result("CCN(CC)CCCCNc1ncc2cc(-c3cc(OC)cc(OC)c3)c(NC(=O)NC(C)(C)C)nc2n1 + O=C(CCCCCCC(=O)Nc1ccccc1)NO [Vorinostat] (partner 1 µM)")
0.834
>>> test_result("O=c1cc(N2CCOCC2)oc2c(-c3cccc4c3sc3ccccc34)cccc12 + CCNC(=O)c1noc(-c2cc(C(C)C)c(O)cc2O)c1-c1ccc(CN2CCOCC2)cc1 [Luminespib] (partner 0.01 µM)")
0.893
>>> test_result("CCN(CC)CCCCNc1ncc2cc(-c3cc(OC)cc(OC)c3)c(NC(=O)NC(C)(C)C)nc2n1 + C[C@]1(O)C[C@@H](c2nc(-c3ccc4ccc(-c5ccccc5)nc4c3)c3c(N)nccn32)C1 [Linsitinib] (partner 1 µM)")
0.712

----------
Test system: NCI-H1915
assay protocol: relative viability (nuclei count vs DMSO), 5 days (fraction); higher = more cells survive
condition summary: first compound 0.8 µM
Response field label: string, one of yes (1) (relative viability strictly below 0.6) or no (0).

>>> class_assignment("O=c1cc(-c2cccc3c2Sc2ccccc2S3)oc(N2CCOCC2)c1 + C[C@]1(O)C[C@@H](c2nc(-c3ccc4ccc(-c5ccccc5)nc4c3)c3c(N)nccn32)C1 [Linsitinib] (partner 1 µM)")
"no (0)"
>>> class_assignment("O=c1cc(-c2cccc3c2Sc2ccccc2S3)oc(N2CCOCC2)c1 + O=C(c1cc(Cc2n[nH]c(=O)c3ccccc23)ccc1F)N1CCN(C(=O)C2CC2)CC1 [Olaparib] (partner 8 µM)")
"yes (1)"
>>> class_assignment("O=c1cc(-c2cccc3c2Sc2ccccc2S3)oc(N2CCOCC2)c1 + Nc1nc2[nH]cc(CCc3ccc(C(=O)N[C@@H](CCC(=O)O)C(=O)O)cc3)c2c(=O)[nH]1 [Pemetrexed] (partner 0.2 µM)")
"yes (1)"
>>> class_assignment("COc1nc(C)cnc1NS(=O)(=O)c1cccnc1-c1ccc(-c2nnco2)cc1 [Zibotentan] + N=C(N)NC(=N)NCCc1ccccc1 [Phenformin] (partner 250 µM)")
"yes (1)"

----------
Test system: NCI-H1650
assay protocol: relative viability (nuclei count vs DMSO), 5 days (fraction); higher = more cells survive
condition summary: first compound 0.1 µM
Recorded relative viability, one value per entry.
endpoint name: relative viability

>>> test_result("CCN(CC)CCCCNc1ncc2cc(-c3cc(OC)cc(OC)c3)c(NC(=O)NC(C)(C)C)nc2n1 + CC(C)C[C@H](NC(=O)[C@H](Cc1ccccc1)NC(=O)c1cnccn1)B(O)O [Bortezomib] (partner 0.002 µM)")
0.233
>>> test_result("CCN(CC)CCCCNc1ncc2cc(-c3cc(OC)cc(OC)c3)c(NC(=O)NC(C)(C)C)nc2n1 + Cc1cc(Nc2cc(N3CCN(C)CC3)nc(Sc3ccc(NC(=O)C4CC4)cc3)n2)n[nH]1 [Tozasertib] (partner 0.1 µM)")
0.392
>>> test_result("O=c1cc(N2CCOCC2)oc2c(-c3cccc4c3sc3ccccc34)cccc12 + Cc1cc(Nc2cc(N3CCN(C)CC3)nc(Sc3ccc(NC(=O)C4CC4)cc3)n2)n[nH]1 [Tozasertib] (partner 0.1 µM)")
0.392

----------
System: LC-2-ad
assay protocol: relative viability (nuclei count vs DMSO), 5 days (fraction); higher = more cells survive
condition summary: first compound 1 µM
Measured relative viability by item
endpoint name: relative viability

>>> test_result("O=c1cc(N2CCOCC2)oc2c(-c3cccc4c3sc3ccccc34)cccc12 + CCNC(=O)c1noc(-c2cc(C(C)C)c(O)cc2O)c1-c1ccc(CN2CCOCC2)cc1 [Luminespib] (partner 0.01 µM)")
1.13
>>> test_result("O=c1cc(N2CCOCC2)oc2c(-c3cccc4c3sc3ccccc34)cccc12 + CC1(C)CCC(c2ccc(Cl)cc2)=C(CN2CCN(c3ccc(C(=O)NS(=O)(=O)c4ccc(N[C@H](CCN5CCOCC5)CSc5ccccc5)c(S(=O)(=O)C(F)(F)F)c4)cc3)CC2)C1 [Navitoclax] (partner 0.5 µM)")
0.386
>>> test_result("CCN(CC)CCCCNc1ncc2cc(-c3cc(OC)cc(OC)c3)c(NC(=O)NC(C)(C)C)nc2n1 + C[C@]1(O)C[C@@H](c2nc(-c3ccc4ccc(-c5ccccc5)nc4c3)c3c(N)nccn32)C1 [Linsitinib] (partner 1 µM)")
0.757
>>> test_result("CCN(CC)CCCCNc1ncc2cc(-c3cc(OC)cc(OC)c3)c(NC(=O)NC(C)(C)C)nc2n1 + C[C@@H](Oc1cc(-c2cnn(C3CCNCC3)c2)cnc1N)c1c(Cl)ccc(F)c1Cl [Crizotinib] (partner 1 µM)")
0.39

----------
System: NCI-H2347
assay protocol: relative viability (nuclei count vs DMSO), 5 days (fraction); higher = more cells survive
condition summary: first compound 6.325 µM
endpoint name: relative viability

>>> test_result("COCC1(CO)C(=O)C2CCN1CC2 (stereo not given) [PRIMA-1MET] + Cc1cc(Nc2cc(N3CCN(C)CC3)nc(Sc3ccc(NC(=O)C4CC4)cc3)n2)n[nH]1 [Tozasertib] (partner 0.1 µM)")
0.516
>>> test_result("COCC1(CO)C(=O)C2CCN1CC2 (stereo not given) [PRIMA-1MET] + COc1cc2c(Oc3ccc(NC(=O)C4(C(=O)Nc5ccc(F)cc5)CC4)cc3F)ccnc2cc1OCCCN1CCOCC1 [Foretinib] (partner 0.25 µM)")
1.1
>>> test_result("COCC1(CO)C(=O)C2CCN1CC2 (stereo not given) [PRIMA-1MET] + Nc1ncn([C@H]2C[C@H](O)[C@@H](CO)O2)c(=O)n1 [Decitabine] (partner 2 µM)")
0.668
>>> test_result("COCC1(CO)C(=O)C2CCN1CC2 (stereo not given) [PRIMA-1MET] + CCNC(=O)c1noc(-c2cc(C(C)C)c(O)cc2O)c1-c1ccc(CN2CCOCC2)cc1 [Luminespib] (partner 0.01 µM)")
0.386
>>> test_result("COCC1(CO)C(=O)C2CCN1CC2 (stereo not given) [PRIMA-1MET] + Cc1nc(Nc2ncc(C(=O)Nc3c(C)cccc3Cl)s2)cc(N2CCN(CCO)CC2)n1 [Dasatinib] (partner 0.075 µM)")
0.3
>>> test_result("COCC1(CO)C(=O)C2CCN1CC2 (stereo not given) [PRIMA-1MET] + Cc1nc(NC(=O)N2CCC[C@H]2C(N)=O)sc1-c1ccnc(C(C)(C)C(F)(F)F)c1 [Alpelisib] (partner 2 µM)")
1.08
>>> test_result("COCC1(CO)C(=O)C2CCN1CC2 (stereo not given) [PRIMA-1MET] + CC(C)C[C@H](NC(=O)[C@H](Cc1ccccc1)NC(=O)c1cnccn1)B(O)O [Bortezomib] (partner 0.002 µM)")
1.07
>>> test_result("COCC1(CO)C(=O)C2CCN1CC2 (stereo not given) [PRIMA-1MET] + CC1(C)CCC(c2ccc(Cl)cc2)=C(CN2CCN(c3ccc(C(=O)NS(=O)(=O)c4ccc(N[C@H](CCN5CCOCC5)CSc5ccccc5)c(S(=O)(=O)C(F)(F)F)c4)cc3)CC2)C1 [Navitoclax] (partner 0.5 µM)")
0.872
>>> test_result("COCC1(CO)C(=O)C2CCN1CC2 (stereo not given) [PRIMA-1MET] + CS(=O)(=O)N1CCN(Cc2cc3nc(-c4cccc5[nH]ncc45)nc(N4CCOCC4)c3s2)CC1 [Pictilisib] (partner 1 µM)")
0.675
>>> test_result("COCC1(CO)C(=O)C2CCN1CC2 (stereo not given) [PRIMA-1MET] + C[C@]1(O)C[C@@H](c2nc(-c3ccc4ccc(-c5ccccc5)nc4c3)c3c(N)nccn32)C1 [Linsitinib] (partner 1 µM)")
0.995
